STUDY SYSTEM: GluA2 (Rattus norvegicus, UniProt P19491)
Construct: expressed in transfected cells; host or cells: HEK293T (HEK293) cells, transient co-transfection with a separate EGFP vector
Sequence (P19491 22-883 isoform P19491-2 limits assumed): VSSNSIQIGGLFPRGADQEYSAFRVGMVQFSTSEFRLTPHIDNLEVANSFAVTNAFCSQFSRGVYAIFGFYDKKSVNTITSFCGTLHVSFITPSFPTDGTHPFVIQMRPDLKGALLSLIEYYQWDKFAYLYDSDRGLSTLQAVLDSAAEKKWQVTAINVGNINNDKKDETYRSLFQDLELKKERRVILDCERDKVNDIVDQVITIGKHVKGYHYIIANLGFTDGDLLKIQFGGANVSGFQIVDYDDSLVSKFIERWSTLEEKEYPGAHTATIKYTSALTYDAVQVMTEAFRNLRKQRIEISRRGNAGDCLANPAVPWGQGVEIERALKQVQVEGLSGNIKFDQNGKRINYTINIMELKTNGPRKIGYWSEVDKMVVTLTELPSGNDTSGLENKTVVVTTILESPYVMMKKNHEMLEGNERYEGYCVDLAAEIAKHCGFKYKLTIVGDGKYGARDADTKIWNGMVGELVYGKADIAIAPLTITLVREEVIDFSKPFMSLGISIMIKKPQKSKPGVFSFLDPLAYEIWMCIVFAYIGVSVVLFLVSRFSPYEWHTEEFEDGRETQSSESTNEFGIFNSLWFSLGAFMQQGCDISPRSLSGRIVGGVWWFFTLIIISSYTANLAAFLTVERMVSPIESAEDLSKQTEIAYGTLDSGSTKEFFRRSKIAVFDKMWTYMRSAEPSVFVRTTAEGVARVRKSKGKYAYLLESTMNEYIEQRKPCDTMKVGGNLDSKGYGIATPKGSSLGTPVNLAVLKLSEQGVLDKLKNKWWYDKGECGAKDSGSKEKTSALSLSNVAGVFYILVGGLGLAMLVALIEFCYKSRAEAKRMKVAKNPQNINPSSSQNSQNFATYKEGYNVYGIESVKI
EXPERIMENTAL PROTOCOL: Whole-cell patch clamp recordings of homomeric GluA2 AMPA receptor currents and kinetics in transfected HEK293t cells
Type: cell-based
ASSAY CONDITIONS: 10 mM glutamate for 500 ms, with compound, mean ± SD
ENDPOINT: t des (weighted desensitization time constant) (ms)

>  <SMILES DATA>
Cc1onc(-c2c(Cl)cccc2Cl)c1C(=O)Nc1ccc(-c2ccccc2)cc1

>  <QUANTITATIVE RESULT>
2.0

$$$$
>  <SMILES DATA>
Cc1onc(-c2c(Cl)cccc2Cl)c1C(=O)Nc1ccc(OC(F)(F)F)cc1

>  <QUANTITATIVE RESULT>
2.3

$$$$
>  <SMILES DATA>
COc1cc(NC(=O)c2c(-c3c(Cl)cccc3Cl)noc2C)cc(OC)c1OC

>  <QUANTITATIVE RESULT>
1.1

$$$$
>  <SMILES DATA>
COc1ccc(NC(=O)c2c(-c3c(Cl)cccc3Cl)noc2C)cc1OC

>  <QUANTITATIVE RESULT>
1.5

$$$$
>  <SMILES DATA>
COc1cc(NC(=O)c2c(-c3c(Cl)cccc3Cl)noc2C)cc(OC)c1

>  <QUANTITATIVE RESULT>
0.9

$$$$
>  <SMILES DATA>
Cc1onc(-c2c(Cl)cccc2Cl)c1C(=O)Nc1ccc(C(C)(C)C)cc1

>  <QUANTITATIVE RESULT>
2.4

$$$$
